Source: paper PMC5540273

Tested on: AKT3
Conditions: concentration: 1 μM,replicates: in singlicate; n = 1;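 also: KINOMEscan kinase panel screen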
Reported %Inh values for the following compounds.
API: value field is a number in %; no unit string.

1) CCN(CC)CCCCNc1ncc2cc(-c3c(Cl)cccc3Cl)c(NC(=O)NC(C)(C)C)nc2n1 :: 0
2) NC(=O)c1cc(-c2ccccc2)cc2c(C3CCNCC3)c[nH]c12 :: 27
3) C[C@@H](Oc1cc(-c2cnn(C3CCNCC3)c2)cnc1N)c1c(Cl)ccc(F)c1Cl :: 0
4) CCN(CC)CCOc1ccc(Nc2ncc3cc(-c4c(Cl)cccc4Cl)c(=O)n(C)c3n2)cc1 :: 0
5) O=C(NCCCN1CCOC1=O)c1cnc(NCc2cc(Cl)ccc2Cl)nc1NC1CCCC1 :: 0
6) Cc1cc(C(=O)Nc2ccc(Oc3ccc4nc(NC(=O)C5CC5)cn4n3)cc2)nn1-c1ccccc1 :: 0

Now for the compound whose %Inh we want.
In: Give the reported value of %Inh for this record: Cl.Cl.NC[C@H](Cc1ccc(C(F)(F)F)cc1)NC(=O)c1cc(Br)c(-c2ccnc3[nH]ccc23)s1
Out: 79

====

Tested on: NEK6
Conditions: concentration: 1 μM,replicates: in singlicate; n = 1
OBSERVED_PROPERTY: %Inh (%)
Entry rule: numbers only, all in %.

1) C[C@H]1Oc2cc(cnc2N)-c2c(nn(C)c2C#N)CN(C)C(=O)c2ccc(F)cc21 :: 0
2) CCN(CC)CCOc1ccc(Nc2ncc3cc(-c4c(Cl)cccc4Cl)c(=O)n(C)c3n2)cc1 :: 44
3) CCN(CC)CCCCNc1ncc2cc(-c3c(Cl)cccc3Cl)c(NC(=O)NC(C)(C)C)nc2n1 :: 38

In: Given the molecule Cl.Cl.NC[C@H](Cc1ccc(C(F)(F)F)cc1)NC(=O)c1cc(Br)c(-c2ccnc3[nH]ccc23)s1 , write its reported %Inh.
Out: 0

In: Provide one value: measured %Inh of Cl.Cl.NC[C@H](CC1CCCCC1)NC(=O)c1cc(Br)c(-c2ccnc3[nH]ccc23)s1
Out: 0

In: Supply %Inh value. Item: Nc1nc(Nc2ccccc2)cc(-c2ccc3c(N)n[nH]c3c2)n1
Out: 0

In: Supply recorded %Inh for Cc1cc2cn[nH]c2cc1-c1cccc2c(N)c(C(N)=O)nnc12 here.
Out: 17

In: Give %Inh for the following molecule: COc1ccc(C[C@@H](CN)NC(=O)c2cc(Br)c(-c3ccnc4[nH]ccc34)s2)cc1.Cl.Cl
Out: 0

====

// reported %Inh for each item listed
Tested on: ADCK3
Construct: gene CABC1
Conditions: concentration: 1 μM,replicates: in singlicate; n = 1
API: value field is a number in %; no unit string.

In the examples that follow, each entry is paired with its recorded %Inh.
1. Cl.Cl.NC[C@H](CC1CCCCC1)NC(=O)c1cc(Br)c(-c2ccnc3[nH]ccc23)s1 :: 9
2. CCn1c(-c2nonc2N)nc2c(C#CC(C)(C)O)nc(OCCN)cc21.Cl.Cl :: 6

// moving on: another record for %Inh
In: Report value only: %Inh, ADCK3, Cl.Cl.NC[C@H](Cc1ccc(C(F)(F)F)cc1)NC(=O)c1cc(Br)c(-c2ccnc3[nH]ccc23)s1
Out: 12

====

Test system: YES
Construct: gene YES1
Settings: concentration: 1 μM,replicates: in singlicate; n = 1
Listed next: entries and their corresponding %Inh.
Just the number in %, nothing appended.

Please review the entries below; each comes with its answer.
1) C[C@H]1Oc2cc(cnc2N)-c2c(nn(C)c2C#N)CN(C)C(=O)c2ccc(F)cc21 :: 2
2) CCn1c(-c2nonc2N)nc2c(C#CC(C)(C)O)nc(OCCN)cc21.Cl.Cl :: 19
3) Nc1nc(Nc2ccccc2)cc(-c2ccc3c(N)n[nH]c3c2)n1 :: 0

In: Read the entry CN(C)CC(O)COc1ccc(Nc2nccc(-c3cnn4nc(N5CCOCC5)ccc34)n2)cc1 (stereo not shown) and write its reported %Inh.
Out: 0

====

%Inh values for the compounds below.
Tested on: MAP4K5
Conditions: concentration: 1 μM,replicates: in singlicate; n = 1
Give just the number in %; leave the unit off.

The following compounds have reported results that may help.
1. Cl.Oc1cc(-c2nc(-c3ccccc3)[nH]c2-c2ccncc2)ccc1Cl [SB-386023] :: 4
2. O=C(NCCCN1CCOC1=O)c1cnc(NCc2cc(Cl)ccc2Cl)nc1NC1CCCC1 :: 23
3. Nc1nc(Nc2ccccc2)cc(-c2ccc3c(N)n[nH]c3c2)n1 [GSK2225749] :: 6

In: Report %Inh, nothing else, for this compound: CN(C)CC(O)COc1ccc(Nc2nccc(-c3cnn4nc(N5CCOCC5)ccc34)n2)cc1 (stereo not drawn) [GW767488]
Out: 12

In: Give a short answer stating reported %Inh for CCN(CC)CCCCNc1ncc2cc(-c3c(Cl)cccc3Cl)c(NC(=O)NC(C)(C)C)nc2n1 .
Out: 71

In: Specify measured %Inh for CC(C)Nc1cc(-c2ccc3c(N)n[nH]c3c2)nc(N)n1 [GSK2221681] .
Out: 5

In: Give the reported value of %Inh for this record: C[C@@H](Oc1cc(-c2cnn(C3CCNCC3)c2)cnc1N)c1c(Cl)ccc(F)c1Cl
Out: 90.2

In: Indicate its recorded %Inh; the compound in question is Cc1n[nH]c2ccc(-c3cc(OC[C@@H](N)Cc4ccccc4)cnc3-c3ccoc3)cc12.O=C(O)C(F)(F)F.O=C(O)C(F)(F)F [GSK507358]
Out: 94.3

In: Supply recorded %Inh for C[C@@H]1CCN(C(=O)CC#N)C[C@@H]1N(C)c1ncnc2[nH]ccc12 here.
Out: 0

In: Identify %Inh associated with the compound Cc1cc(C(=O)Nc2ccc(Oc3ccc4nc(NC(=O)C5CC5)cn4n3)cc2)nn1-c1ccccc1
Out: 0

In: Item CCN(CC)CCOc1ccc(Nc2ncc3cc(-c4c(Cl)cccc4Cl)c(=O)n(C)c3n2)cc1 [SB-601273] : provide %Inh
Out: 99.6

In: Note %Inh for the compound shown: Cc1ccc2c(-c3ccncc3)c(-c3ccc(F)cc3)nn2c1.Cl [GW461484]
Out: 0

In: Tell us which %Inh value is on record for CN(C)CCOc1ccc(-c2cc(-c3c[nH]nc3-c3ccccn3)ccn2)cc1 [GW835314]
Out: 24

In: Consider the compound O=C(NCCNc1ccnc(NCc2ccc(F)cc2)n1)c1cc2ccccc2s1 [GSK1379944] and give its recorded %Inh.
Out: 3

In: // fetch %Inh given entry Cc1ccc(-n2nc(C(C)(C)C)cc2NC(=O)Nc2ccc(OCCN3CCOCC3)c3ccccc23)cc1 [GW839464]
Out: 0

====

Readings of %Inh for the listed molecules
Tested on: p38-beta
Construct: gene MAPK11
Settings: concentration: 1 μM,replicates: in singlicate; n = 1
Answer in %, number only, no unit symbol.

Worked set:
1) CCn1c(-c2nonc2N)nc2c(C#CC(C)(C)O)nc(OCCN)cc21.Cl.Cl :: 0
2) Cc1cc(C(=O)Nc2ccc(Oc3ccc4nc(NC(=O)C5CC5)cn4n3)cc2)nn1-c1ccccc1 :: 27
3) CCN(CC)CCOc1ccc(Nc2ncc3cc(-c4c(Cl)cccc4Cl)c(=O)n(C)c3n2)cc1 :: 98.1

In: Note %Inh for the molecule shown: CN(C)CCOc1ccc(-c2cc(-c3c[nH]nc3-c3ccccn3)ccn2)cc1
Out: 4

In: Annotate the molecule Cl.Cl.NC[C@H](Cc1ccc(C(F)(F)F)cc1)NC(=O)c1cc(Br)c(-c2ccnc3[nH]ccc23)s1 with its measured %Inh.
Out: 0

In: Recall and state the measured %Inh for Cl.Cl.NC[C@H](CC1CCCCC1)NC(=O)c1cc(Br)c(-c2ccnc3[nH]ccc23)s1 .
Out: 0

In: Report measured %Inh; entry is CNC(=O)c1ccccc1Sc1ccc2c(/C=C/c3ccccn3)n[nH]c2c1
Out: 15

====

Quick list: %Inh per entry.
Test system: GRK3
Construct: gene ADRBK2
Settings: concentration: 1 μM,replicates: in singlicate; n = 1
Unit % implied. Number only.

1. Nc1nc(Nc2ccccc2)cc(-c2ccc3c(N)n[nH]c3c2)n1 [GSK2225749] :: 0

In: # return recorded %Inh for entry CN(C)CC(O)COc1ccc(Nc2nccc(-c3cnn4nc(N5CCOCC5)ccc34)n2)cc1 (stereo not shown) [GW767488]
Out: 0

In: Please report %Inh for the following compound: CCn1c(-c2nonc2N)nc2c(C#CC(C)(C)O)nc(OCCN)cc21.Cl.Cl [GSK902056]
Out: 39

In: State, in one line, measured %Inh of CCN(CC)CCCCNc1ncc2cc(-c3c(Cl)cccc3Cl)c(NC(=O)NC(C)(C)C)nc2n1
Out: 28

In: Return value of %Inh for input CC(C)Nc1cc(-c2ccc3c(N)n[nH]c3c2)nc(N)n1 [GSK2221681] , no commentary.
Out: 0
